Hello, the source for this data is the supplement of paper PMC13380429, in case you need it.

This listing pairs compounds with measured relative viability EC50.
- Test system: HepG2
- Protocol summary: relative viability EC50 (midpoint between 100% and the lowest measured viability); higher = less toxic
- Condition: 72 h

These solved cases illustrate the format of a correct answer.
Cn1nc(-c2ccc(C(F)(F)F)cc2)nc2c(=O)n(C)c(=O)nc1-2    0.88 µM
CC[N+](C)(CC)CCOC(=O)C(O)(c1ccccc1)C1CCCCC1 (centres undefined)    > 10 µM
O=CN1CCC(C(=O)NCCN2CCC(=C3c4ccccc4C=Cc4ccccc43)CC2)CC1    > 10 µM
CC(C)(C)Cn1c(N)nc2ccc(-c3[nH]c(C(C)(C)C)nc3-c3ccc(F)cc3)nc21    > 10 µM
Cc1ccc(/C=N/NC(=O)c2ccccc2Oc2ccccc2)o1    > 10 µM
COc1ccccc1C1(O)CCN(CCCn2c3ccccc3c3ccccc32)CC1    3.14 µM
CC(=O)Oc1cccc(C(=O)O)c1OC(C)=O    > 10 µM
O=C(O)CCCN1C(=O)c2cccc3cccc(c23)C1=O    > 10 µM

Read the next record carefully.
[Q] # relative viability EC50 lookup, item [N-]=[N+]=CC(=O)CC[C@H](N)C(=O)O
[A] > 10 µM
